Exercise: state measured Binding distance/r for each of the compounds provided.
Biological target: human serum albumin (HSA) (Homo sapiens, UniProt P02768)
Sequence (P02768 25-609): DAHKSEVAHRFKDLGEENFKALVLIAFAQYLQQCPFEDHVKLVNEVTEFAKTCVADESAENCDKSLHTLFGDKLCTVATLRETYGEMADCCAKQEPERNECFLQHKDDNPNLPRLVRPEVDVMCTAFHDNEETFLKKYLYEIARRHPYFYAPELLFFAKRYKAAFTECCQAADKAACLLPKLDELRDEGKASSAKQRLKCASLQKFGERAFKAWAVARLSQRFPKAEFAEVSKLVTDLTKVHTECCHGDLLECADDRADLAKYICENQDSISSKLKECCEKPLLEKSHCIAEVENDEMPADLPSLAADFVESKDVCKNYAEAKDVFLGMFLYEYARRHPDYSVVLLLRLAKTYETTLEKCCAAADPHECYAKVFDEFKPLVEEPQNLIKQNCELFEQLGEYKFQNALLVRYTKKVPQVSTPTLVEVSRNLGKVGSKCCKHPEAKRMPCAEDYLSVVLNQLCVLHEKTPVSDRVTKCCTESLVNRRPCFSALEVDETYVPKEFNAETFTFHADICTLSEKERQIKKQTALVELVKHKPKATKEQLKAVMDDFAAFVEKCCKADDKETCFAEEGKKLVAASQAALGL
Experiment: Fluorescence emission spectrum (quenching) of HSA with carbamate pesticides
Format: binding
Details: modelling table
Please reply with the value in numeric form only.

Quick one: Binding distance/r for CNC(=O)O/N=C(\C)C(C)S(C)(=O)=O (stereo not drawn) ?
1.964

Continue with CCSCc1ccccc1OC(=O)NC
2.363

Let us now turn to CNC(=O)Oc1ccccc1OC(C)C
3.138

Now consider CNC(=O)Oc1cc(C)cc(C(C)C)c1 .
2.316

Would you kindly repeat that for CNC(=O)Oc1ccccc1C(C)C ?
2.338

Subsequent entry: CNC(=O)Oc1cccc2c1OC(C)(C)C2
1.938

Follow-up entry: CNC(=O)Oc1cccc(C)c1
2.525

And for CCC(C)c1ccccc1OC(=O)NC (stereo not drawn) ?
2.791

Repeat for the following compound: CNC(=O)Oc1ccc(N(C)C)c(C)c1
2.215
